# Tested on: SN12C renal
# PROTOCOL DESCRIPTION: NCI tumour cell line growth inhibition, 48 h; in the data active means GI50 below about 0.43 µM; inactive means the rest
Response enum: active, inactive

Outcome logged for "Cc1ccc(-c2nc(/C=N/Nc3cc(C)nc4ccc(Cl)cc34)c(C)o2)cc1" in this assay: inactive

Outcome logged for "COc1ccc(C(=O)c2cc(C)c(OC)c(C)c2)c(OC)c1NC(C)=O" in this assay: inactive

Outcome logged for "CC(C)N(Cc1ccc(CN(C(=O)CCl)C(C)C)cc1)C(=O)CCl" in this assay: inactive

Outcome logged for "CNCCCNc1nc2ccccc2c2c(=O)c3cc(OC)ccc3sc12" in this assay: inactive

Outcome logged for "c1ccc(OCCC[P+](c2ccccc2)(c2ccccc2)c2ccccc2)cc1" in this assay: inactive

Outcome logged for "CN=C1C=CC(=C(c2ccc(N(C)C)cc2)c2ccc(N(C)C)cc2)C=C1" in this assay: active

Outcome logged for "COc1ccc(-c2nc(-c3nc4ccc(C)cc4[nH]3)cc3c2[nH]c2ccccc23)cc1" in this assay: inactive

Outcome logged for "Cc1cc(-c2c(F)cc3c4nn([C@H]5CC[C@@H](N(C)C)CC5)c(=O)c-4cn(C4CC4)c3c2F)cc(C)n1" in this assay: active

Outcome logged for "ClCc1ccccc1Cn1cnc2ncnc(Cl)c21" in this assay: inactive

###

Field: log10(TGI). Provide a value for each of the molecules that follow.
# Tested on: HOP-92 NSCLC
# PROTOCOL DESCRIPTION: NCI tumour cell line growth inhibition, 48 h
Log10 applied to TGI; unit prior to transform: µM.

What value of measured log10(TGI) is listed for "O=C(OCc1ccccc1)N1CCNCCNCCN(C(=O)OCc2ccccc2)CCNCC1" ? 1.67

What value of measured log10(TGI) is listed for "CSc1cnc2ccccc2c1Sc1c[nH]c2ccccc2c1=O" ? 1.47

What value of measured log10(TGI) is listed for "Cc1c(C#N)cccc1[C@@H](C)Nc1nnc(C)c2cnc(N3CCOCC3)cc12" ? 1.12

What value of measured log10(TGI) is listed for "O=C(NC(=O)c1c(Cl)nc2sccn12)Nc1ccc(Cl)cc1" ? 1.82

What value of measured log10(TGI) is listed for "COc1ccc(-c2nc(-c3nc4ccc(C)cc4[nH]3)cc3c2[nH]c2ccccc23)cc1" ? 0.91

What value of measured log10(TGI) is listed for "CC(C)N(Cc1ccc(CN(C(=O)CCl)C(C)C)cc1)C(=O)CCl" ? 0.55

What value of measured log10(TGI) is listed for "Cc1c([C@H](C)[C@@H]2NC[C@@H](C)C[C@H]2O)ccc2c1C[C@H]1[C@H]2CC=C2C[C@@H](O)CC[C@@]21C" ? 1.37

What value of measured log10(TGI) is listed for CCC(C)CC(C)CC(C)/C=C(\C)C1=C(C)CC(C)(O)O1 (stereo not given) ? 1.90

###

# Tested on: SK-MEL-5 melanoma
# PROTOCOL DESCRIPTION: NCI tumour cell line growth inhibition, 48 h
Please note: Condition met applies when TGI is 20 µM or greater, and Condition not met applies otherwise.

Reported TGI reaches at least 20 µM for "O=C(C(=O)n1ncc(Cl)c(Cl)c1=O)n1ncc(Cl)c(Cl)c1=O" ? Condition met

Reported TGI reaches at least 20 µM for "c1ccc(OCCC[P+](c2ccccc2)(c2ccccc2)c2ccccc2)cc1" ? Condition not met

Reported TGI reaches at least 20 µM for "COc1ccc(/C=C/c2c(C(=O)/C=C/c3ccc(C(F)(F)F)cc3)c(C)nc3ccccc23)cc1" ? Condition not met

Reported TGI reaches at least 20 µM for "[N-]=[N+]=NCCCn1c2c(c3ccc([N+](=O)[O-])cc3c1=O)C(=O)c1cc(Br)ccc1-2" ? Condition met

Reported TGI reaches at least 20 µM for N#Cc1c(N)nc2c3c1NC(=O)C(C(N)=O)C3c1ccccc1O2 (centres undefined) ? Condition met

Reported TGI reaches at least 20 µM for CCOC1=C(c2ccccc2)N2CCCCC2O1 (centres undefined) ? Condition not met

Reported TGI reaches at least 20 µM for O=C(O)c1cccc(NC(C(=O)c2ccccc2)c2ccccc2)c1 (centres undefined) ? Condition met

Reported TGI reaches at least 20 µM for "CS(=O)(=O)c1ccc(Nc2nc(N[C@H]3CCCC[C@H]3N)nc3cc[nH]c(=O)c23)cc1" ? Condition not met

Reported TGI reaches at least 20 µM for COc1cccc(C2c3cc4c(cc3OC(Nc3ccccc3)C2C)OCO4)c1O (centres undefined) ? Condition not met

Reported TGI reaches at least 20 µM for "O=C(O)/C(Cc1cn[nH]n1)=N\O" ? Condition met

Reported TGI reaches at least 20 µM for "CCCCN(C)/N=N/c1nc[nH]c1C(N)=O" ? Condition met

Reported TGI reaches at least 20 µM for "COc1ccccc1NC(=O)C1=C(C)NC(C)=C(C(=O)Nc2ccccc2OC)C1/C=C/c1ccccc1" ? Condition met

Reported TGI reaches at least 20 µM for "COc1cc(/C=C/c2ccc(O)c(OC)c2)cc(OC)c1" ? Condition met

Reported TGI reaches at least 20 µM for "C#C[C@@]1(O)[C@@H](CO)O[C@@H](n2cc(I)c3c(N)ncnc32)[C@@H]1O" ? Condition not met

Reported TGI reaches at least 20 µM for "COc1ccc(C)cc(=O)c1O" ? Condition met

Reported TGI reaches at least 20 µM for "CC(C)=CCC[C@@H](C)C1=C(O)C(Nc2ccccc2I)=C(C)C(=O)C1=O" ? Condition met

Reported TGI reaches at least 20 µM for "Nc1c(S(=O)(=O)O)cc(S(=O)(=O)O)c2ccc(N=Nc3ccc(/C=C/c4ccc(N=Nc5ccc6c(S(=O)(=O)O)cc(S(=O)(=O)O)c(N)c6c5O)cc4S(=O)(=O)O)c(S(=O)(=O)O)c3)c(O)c12" ? Condition met

Reported TGI reaches at least 20 µM for CCN(CC)CCCC(C)Nc1cc(-c2cccc(OC(F)(F)F)c2)nc2ccc(N3CCCC3)cc12 (centres undefined) ? Condition not met

Reported TGI reaches at least 20 µM for "Cc1cc(C)c(C#N)c(Sc2nc(C)c([N+](=O)[O-])c(C)c2C#N)n1" ? Condition not met

Reported TGI reaches at least 20 µM for "Cc1ccc(NC(=O)C(=O)CC(=O)c2c(C)n([O-])c3ccccc3[n+]2=O)cc1C" ? Condition met

Reported TGI reaches at least 20 µM for CCSC1=CC2(O)N(CCc3ccc(OC)c(OC)c3)C(=O)CC2(C(=O)OC)CC1=O (centres undefined) ? Condition met

Reported TGI reaches at least 20 µM for "COCCOc1cc(C)cc(/C=C(C)/C=C/C2=C(C)CCCC2(C)C)n1" ? Condition met

Reported TGI reaches at least 20 µM for "Cc1nc(-c2cc3ccccc3oc2=O)cs1" ? Condition met

Reported TGI reaches at least 20 µM for "O=C(O)c1ccccc1C1c2ccccc2Oc2ccccc21" ? Condition met

Reported TGI reaches at least 20 µM for "O=C(O)CCNS(=O)(=O)c1ccc2ccccc2c1" ? Condition met

Reported TGI reaches at least 20 µM for CCN(CC)CC1CCCCN1CC(=O)N1CC(C)C(=O)Nc2ccccc21 (centres undefined) ? Condition met

Reported TGI reaches at least 20 µM for "CC1=C(C(=O)Nc2ccccc2)C(c2ccccc2Cl)C(C(=O)Nc2ccccc2)=C(C)N1" ? Condition met

Reported TGI reaches at least 20 µM for "Oc1ccc(Oc2cc3c(cc2Oc2ccc(O)cc2)-c2nc-3nc3[nH]c(nc4nc(nc5[nH]c(n2)c2cc(Oc6ccc(O)cc6)c(Oc6ccc(O)cc6)cc52)-c2cc(Oc5ccc(O)cc5)c(Oc5ccc(O)cc5)cc2-4)c2cc(Oc4ccc(O)cc4)c(Oc4ccc(O)cc4)cc32)cc1" ? Condition met

Reported TGI reaches at least 20 µM for "NCCSCCC(=O)O" ? Condition met

Reported TGI reaches at least 20 µM for "NC(=S)NC/C=C/Cl" ? Condition met

Reported TGI reaches at least 20 µM for "CC(=O)C(C)(C)CCC(C)(C)C(C)=O" ? Condition met

Reported TGI reaches at least 20 µM for N#CC(C(=O)CCCC(=O)Nc1ccc(Cl)cc1Cl)c1ccccc1 (centres undefined) ? Condition met

Reported TGI reaches at least 20 µM for "CC(C)CCOC(=O)NC(Nc1ccc(F)cc1)(C(F)(F)F)C(F)(F)F" ? Condition met

Reported TGI reaches at least 20 µM for "Clc1ccc(C2=CCN3CC=C(c4ccc(Cl)cc4)C23)cc1" ? Condition not met
